tested on: Plasmodium berghei; test: Luciferase/luciferin-expressing antifolate-resistant parasites were used to infect a culture of HepG2 cells that were pre-incubated with compounds. Infected hepatocytes emit light due to the luciferase reaction. Assay results are presented as the percent inhibition of light emission compared to control. […]; format: functional; conditions: sporozoite, FFLUC_HILL_SLOPE 27.9, FFLUC_R_SQUARED 0.597, HEPG2TOX_HILL_SLOPE 1.09, HEPG2TOX_R_SQUARED 0.82, PBLUC_HILL_SLOPE 3.2, PBLUC_R_SQUARED 0.533, read-out: LUCIFERASE INFECTION ASSAY - IC50
Outcome Measure: IC50 (nM)
Give bare numbers, in nM.

Request body: readout IC50, system Plasmodium berghei, query "CCc1ccc(/C=C/c2ccc3cccc(O)c3n2)cc1" . Return the value.
157

====

tested on: Plasmodium berghei; test: Luciferase/luciferin-expressing antifolate-resistant parasites were used to infect a culture of HepG2 cells that were pre-incubated with compounds. Infected hepatocytes emit light due to the luciferase reaction. Assay results are presented as the percent inhibition of light emission compared to control. […]; format: functional; details: sporozoite, HEPG2TOX_HILL_SLOPE 1.86, HEPG2TOX_R_SQUARED 0.624, read-out: LUCIFERASE INFECTION ASSAY - IC50
Outcome Measure: IC50

Request body: readout IC50, system Plasmodium berghei, query CCO/C=N\C1=C(C#N)C(c2ccc(OC)cc2)c2ccc3ccccc3c2O1 (stereo unspecified) . Return the value.
> 8.58 µM

====

test system: Plasmodium berghei; assay: Luciferase/luciferin-expressing antifolate-resistant parasites were used to infect a culture of HepG2 cells that were pre-incubated with compounds. Infected hepatocytes emit light due to the luciferase reaction. Assay results are presented as the percent inhibition of light emission compared to control. […]; assay type: functional; conditions: sporozoite, HEPG2TOX_HILL_SLOPE 2.19, HEPG2TOX_R_SQUARED 0.876, PBLUC_HILL_SLOPE 2.71, PBLUC_R_SQUARED 0.259, read-out: LUCIFERASE INFECTION ASSAY - IC50
Outcome Measure: pIC50
One number for each entry, as −log10 of the molar value.

Query: pIC50; subject: COc1ccc(Br)cc1-c1nc(CN2C(=O)NC(C)(c3ccccc3)C2=O)cs1 (stereo unspecified)
5.60

====

system: Plasmodium berghei; assay: Luciferase/luciferin-expressing antifolate-resistant parasites were used to infect a culture of HepG2 cells that were pre-incubated with compounds. Infected hepatocytes emit light due to the luciferase reaction. Assay results are presented as the percent inhibition of light emission compared to control. […]; assay type: functional; conditions: sporozoite, PBLUC_HILL_SLOPE 2.42, PBLUC_R_SQUARED 0.681, read-out: LUCIFERASE INFECTION ASSAY - IC50
Outcome Measure: IC50 (nM)
Give bare numbers, in nM.

Request body: readout IC50, system Plasmodium berghei, query "Cc1nc(C(=O)N2CCc3c(c(C(=O)NC4CCCC4)nn3CC(C)C)C2)cs1" . Return the value.
1170

====

tested on: Plasmodium berghei; experiment: Luciferase/luciferin-expressing antifolate-resistant parasites were used to infect a culture of HepG2 cells that were pre-incubated with compounds. Infected hepatocytes emit light due to the luciferase reaction. Assay results are presented as the percent inhibition of light emission compared to control. […]; format: functional; conditions: sporozoite, HEPG2TOX_HILL_SLOPE 58.7, HEPG2TOX_R_SQUARED 0.822, PBLUC_HILL_SLOPE 3.98, PBLUC_R_SQUARED 0.47, read-out: LUCIFERASE INFECTION ASSAY - IC50
Outcome Measure: IC50 (µM)
Give bare numbers, in µM.

Request body: readout IC50, system Plasmodium berghei, query "O=C(Nc1ccc(Cl)cc1)Nc1ccc2c(c1)no[n+]2[O-]" . Return the value.
4.62

====

test system: Plasmodium berghei; test: Luciferase/luciferin-expressing antifolate-resistant parasites were used to infect a culture of HepG2 cells that were pre-incubated with compounds. Infected hepatocytes emit light due to the luciferase reaction. Assay results are presented as the percent inhibition of light emission compared to control. […]; assay type: functional; details: sporozoite, read-out: LUCIFERASE INFECTION ASSAY - IC90
Outcome Measure: IC90

Observe how each entry below is paired with its result.
{"Compound": "CCc1cccc2c(C(=O)CN3CCC(C(=O)Nc4ccc5c(c4)OCO5)CC3)c[nH]c12", "Target Or Test System": "Plasmodium berghei", "IC90": "> 10 µM"}
{"Compound": "Oc1ccc(CNC(c2ccc3c(c2)CCC3)c2cccs2)cc1 (stereo unspecified)", "Target Or Test System": "Plasmodium berghei", "IC90": "> 10 µM"}
{"Compound": "CN1/C(=C\\C(=O)COC(=O)C2Cc3ccccc3CN2C(=O)c2ccccc2)C(C)(C)c2ccccc21 (stereo unspecified)", "Target Or Test System": "Plasmodium berghei", "IC90": "> 10 µM"}
{"Compound": "Cc1sc2ncn(/N=C/c3ccc(N(c4ccccc4)c4ccccc4)cc3)c(=O)c2c1C", "Target Or Test System": "Plasmodium berghei", "IC90": "4.02 µM"}
{"Compound": "COC(=O)c1c(NC(=O)c2ccco2)c2cc(NC(C)Cc3ccccc3F)cnc2n1C (stereo unspecified)", "Target Or Test System": "Plasmodium berghei", "IC90": "> 7.33 µM"}
{"Compound": "O=C(CN(Cc1c(F)cccc1Cl)C1CC1)Nc1ccccc1Cl", "Target Or Test System": "Plasmodium berghei", "IC90": "> 10 µM"}
{"Compound": "CCOC(=O)c1cnn(-c2ccc(NC(=O)COc3ccccc3C#N)cc2)c1C(F)(F)F", "Target Or Test System": "Plasmodium berghei", "IC90": "> 10 µM"}
{"Compound": "Cc1ccc(-n2nc(-c3ccc(OC(F)(F)F)cc3)cc2NC(=O)Nc2ccc(OC(F)(F)F)cc2)cc1C", "Target Or Test System": "Plasmodium berghei", "IC90": "> 6 µM"}
{"Compound": "CC1C(=O)N(Cc2ncc(-c3ccccc3)o2)C(=O)N1c1ccc(F)cc1 (stereo unspecified)", "Target Or Test System": "Plasmodium berghei", "IC90": "> 10 µM"}
{"Compound": "COc1ccc(NC(=O)C2(C)Cc3c(-c4cccc(NC(C)=O)c4)ccnc3O2)cc1 (stereo unspecified)", "Target Or Test System": "Plasmodium berghei", "IC90": "3.58 µM"}

Provide the reported IC90 of each entry below, same order.
1. O=C(NC1CCCCC1C(F)(F)F)c1csc(-c2ccccc2)n1 (stereo unspecified)
2. FC(F)(F)c1cccc(-c2noc(CCc3nc4ccccc4[nH]3)n2)c1
3. CC(C)CC(N)c1csc(NC(=O)Nc2ccc(OC(F)(F)F)cc2)n1 (stereo unspecified)
4. CCNC(=S)NNC(=O)/C=C/c1ccccc1OC
5. CC(NC(=S)N/N=C/c1cc(Cl)cc(Cl)c1O)c1ccccc1 (stereo unspecified)
6. COc1cc(-c2cnc3sc(NCC4CCOCC4)nn23)ccc1O

1: 3.92 µM; 2: 7.22 µM; 3: 5.1 µM; 4: > 10 µM; 5: 8.46 µM; 6: > 9.16 µM

====

tested on: Plasmodium berghei; assay: Luciferase/luciferin-expressing antifolate-resistant parasites were used to infect a culture of HepG2 cells that were pre-incubated with compounds. Infected hepatocytes emit light due to the luciferase reaction. Assay results are presented as the percent inhibition of light emission compared to control. […]; format: functional; conditions: sporozoite, PBLUC_HILL_SLOPE 3.63, PBLUC_R_SQUARED 0.524, read-out: LUCIFERASE INFECTION ASSAY - IC50
Outcome Measure: IC50 (µM)
Give bare numbers, in µM.

Query: IC50; subject: "Cc1ccc(C)c(-n2nnnc2SCC(=O)NC(=O)NC23CC4CC(CC(C4)C2)C3)c1"
5.39

====

system: Plasmodium berghei; assay: Luciferase/luciferin-expressing antifolate-resistant parasites were used to infect a culture of HepG2 cells that were pre-incubated with compounds. Infected hepatocytes emit light due to the luciferase reaction. Assay results are presented as the percent inhibition of light emission compared to control. […]; format: functional; conditions: sporozoite, FFLUC_HILL_SLOPE 40.8, FFLUC_R_SQUARED 0.195, PBLUC_HILL_SLOPE 31.8, PBLUC_R_SQUARED 0.106, read-out: LUCIFERASE INFECTION ASSAY - IC50
Outcome Measure: IC50 (µM)
One number for each entry, in µM.

Query: IC50; subject: "O=C(Nc1cccc(C(F)(F)F)c1)Nc1ccc2nc(-c3ccco3)nn2c1"
9.83

====

test system: Plasmodium berghei; experiment: Luciferase/luciferin-expressing antifolate-resistant parasites were used to infect a culture of HepG2 cells that were pre-incubated with compounds. Infected hepatocytes emit light due to the luciferase reaction. Assay results are presented as the percent inhibition of light emission compared to control. […]; assay type: functional; conditions: sporozoite, HEPG2TOX_HILL_SLOPE 0.596, HEPG2TOX_R_SQUARED 0.924, PBLUC_HILL_SLOPE 3.63, PBLUC_R_SQUARED 0.908, read-out: LUCIFERASE INFECTION ASSAY - IC50
Outcome Measure: IC50 (µM)
Numbers only, in µM.

Query: IC50; subject: "Cc1cc(C(=O)CSc2nc3ccccc3[nH]2)c(C)n1-c1ccc(F)cc1"
0.28
